Give growth inhibition for every item shown.
# Test Details: NCI Yeast Anticancer Drug Screen. Data for the bub3 strain (AID 167)
# Details: S. cerevisiae bub3 mutant strain, at 50.0 µM (retest, dose inferred, filed as 5.0), hits give high values
This is part of a sample that, as a whole, favours compounds with a hit. Of some 79,000 tested, about 15% had one in any assay. Calls of active or inactive are those of the source. No stated cut-off is given here; in the data, active means growth inhibition above about 70%; inactive means the rest.

For orientation, consider the following solved cases.
{"columns": ["Compound", "Readout Type", "Test Value"],
 "data": [
  ["Cc1ccc(SSCCCCCS(=O)O)cc1", "growth inhibition", "88% (active)"],
  ["NNC(=S)NN/C=C(\\C=Nc1ccccc1)[N+](=O)[O-]", "growth inhibition", "64% (inactive)"],
  ["Cn1cc(NC(=O)Nc2cc(C(=O)Nc3cc(C(=O)Nc4ccc5cc(S(=O)(=O)O)cc(S(=O)(=O)O)c5c4)n(C)c3)n(C)c2)cc1C(=O)Nc1cc(C(=O)Nc2ccc3cc(S(=O)(=O)O)cc(S(=O)(=O)O)c3c2)n(C)c1", "growth inhibition", "98% (active)"],
  ["OCC(O)C(OC1OC(CO)C(O)C(O)C1O)C(O)C(/C=N/Nc1ccc(Br)cc1)=N/Nc1ccc(Br)cc1 (centres undefined)", "growth inhibition", "99% (active)"],
  ["O=C(Nc1ccccc1)c1cc(Cl)ccc1O", "growth inhibition", "49% (inactive)"]
]}

Below are 2 compounds. Give each one its growth inhibition.
1. C=CCOc1ccc2c(c1)CC=C1[C@@H]2CC[C@]2(C)C(=N\O)/C(=N/O)C[C@@H]12
2. CCCCCCCCCCCCCCCCC1CCc2ccccc21 (centres undefined)

1. 99% (active)
2. 39% (inactive)

Below are 2 compounds. Give each one its growth inhibition.
1. Cc1c(NC(=O)C(=O)N=NC(=O)c2ccncc2)c(O)c2ccccc2c1O
2. Cc1ccc(O)c(Cc2ccccc2Cl)c1

96% (active)
99% (active)
